Target: gastric(H^+ -K^+)ATPase (Sus scrofa, UniProt P19156)
Construct: isolated hog gastric membranes enriched with gastric(H^+ -K^+)ATPase
Sequence (P19156 2-1034 limits assumed): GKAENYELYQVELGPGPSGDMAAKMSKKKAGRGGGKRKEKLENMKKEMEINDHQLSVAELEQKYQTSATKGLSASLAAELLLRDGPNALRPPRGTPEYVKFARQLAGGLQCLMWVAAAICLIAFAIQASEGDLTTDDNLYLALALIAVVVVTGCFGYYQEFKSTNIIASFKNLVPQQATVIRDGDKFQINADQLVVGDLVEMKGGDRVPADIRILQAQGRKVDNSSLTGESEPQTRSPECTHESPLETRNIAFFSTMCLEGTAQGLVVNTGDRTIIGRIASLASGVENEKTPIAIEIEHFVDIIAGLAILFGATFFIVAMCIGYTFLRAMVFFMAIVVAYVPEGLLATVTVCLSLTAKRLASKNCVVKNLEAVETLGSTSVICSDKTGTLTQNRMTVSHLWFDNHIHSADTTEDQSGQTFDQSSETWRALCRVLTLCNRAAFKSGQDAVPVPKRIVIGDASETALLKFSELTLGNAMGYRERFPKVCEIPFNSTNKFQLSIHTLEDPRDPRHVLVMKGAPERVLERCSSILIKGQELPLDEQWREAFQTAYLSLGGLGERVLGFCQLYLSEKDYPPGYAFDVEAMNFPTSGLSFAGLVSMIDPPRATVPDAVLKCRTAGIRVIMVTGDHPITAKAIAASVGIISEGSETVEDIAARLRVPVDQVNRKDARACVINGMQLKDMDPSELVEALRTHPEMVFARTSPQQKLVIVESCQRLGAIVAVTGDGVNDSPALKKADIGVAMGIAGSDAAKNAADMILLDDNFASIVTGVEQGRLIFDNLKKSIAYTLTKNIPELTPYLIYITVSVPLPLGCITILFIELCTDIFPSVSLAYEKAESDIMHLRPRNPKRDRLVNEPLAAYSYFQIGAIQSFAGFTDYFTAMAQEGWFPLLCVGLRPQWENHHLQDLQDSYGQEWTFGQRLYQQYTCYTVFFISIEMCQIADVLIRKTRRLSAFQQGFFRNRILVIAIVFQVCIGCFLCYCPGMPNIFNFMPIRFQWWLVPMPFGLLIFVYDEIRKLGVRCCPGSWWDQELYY
Sequence (P18434 whole entry partner): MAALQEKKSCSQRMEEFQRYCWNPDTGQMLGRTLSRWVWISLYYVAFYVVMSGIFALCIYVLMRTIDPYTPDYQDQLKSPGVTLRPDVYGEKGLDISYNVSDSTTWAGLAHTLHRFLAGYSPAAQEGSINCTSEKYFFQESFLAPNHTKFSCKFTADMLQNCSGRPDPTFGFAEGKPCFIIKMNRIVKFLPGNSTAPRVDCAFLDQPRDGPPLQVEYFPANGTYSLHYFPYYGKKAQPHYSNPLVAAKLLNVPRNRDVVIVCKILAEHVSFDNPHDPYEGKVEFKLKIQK
Experiment: inhibition of K^+ -dependent ATP hydrolysis by isolated hog gastric membranes enriched with gastric (H^+ -K^+)ATPase
Conditions: shown to be the most effective, read-out: ID50 (the source's name)

>  <Compound>
CCc1c(OC)ccnc1C[S+]([O-])c1nc2ccccc2[nH]1 (stereo not shown)

>  <Assay system>
gastric(H^+ -K^+)ATPase (Sus scrofa, UniProt P19156)

>  <IC50 (µM)>
3

$$$$
